- SUBJECT_OF_TEST: Adenosine A2 receptor (Rattus norvegicus) (UniProt P29276+P30543)
- PROCEDURE_DETAILS: Inhibition of radioligand R[3H]-CGS 21680 binding to adenosine A2 receptors in rat striatal membrane at 20 uM concentration.
- Type: cell membranes
- EXPERIMENTAL_CONTEXT: Striatum
READOUT_KIND: inhibition (%)

* Cn1c(=O)[nH]c2c(cnn2-c2cc(Cl)cc(Cl)c2)c1=N | 0
* Cn1c(=O)[nH]c2c(cnn2-c2cc(Cl)ccc2Cl)c1=N | 3

1. Cn1c(=O)[nH]c2c(cnn2-c2ccccc2[N+](=O)[O-])c1=N
2. Cn1c(=O)[nH]c2c(cnn2-c2ccc(Cl)cc2)c1=N
3. CCCCn1c(=O)[nH]c2c(cnn2-c2ccccc2)c1=N
4. CCCCn1c(=O)[nH]c2c(cnn2-c2cccc(Cl)c2)c1=N
Write the entries in order, lowest recorded inhibition first. Form entry: labels listed in requested order.
2, 1, 3, 4

====

- PROCEDURE_DETAILS: Hydrophobicity index measured by retention time on a reverse phase HPLC column.
- Type: ADME
READOUT_KIND: k'

• Cn1c(=O)[nH]c2c(cnn2-c2cccc(F)c2)c1=N = 5.8

1. CCCn1c(=O)[nH]c2c(cnn2-c2ccccc2)c1=N
2. CCn1c(=O)[nH]c2c(cnn2-c2ccccc2)c1=N
Would you kindly point out which of 1 and 2 has the smaller k' figure? State your choice using its label.
2

====

- SUBJECT_OF_TEST: Adenosine receptor A1 (Rattus norvegicus, UniProt P25099)
- Sequence (P25099 whole entry): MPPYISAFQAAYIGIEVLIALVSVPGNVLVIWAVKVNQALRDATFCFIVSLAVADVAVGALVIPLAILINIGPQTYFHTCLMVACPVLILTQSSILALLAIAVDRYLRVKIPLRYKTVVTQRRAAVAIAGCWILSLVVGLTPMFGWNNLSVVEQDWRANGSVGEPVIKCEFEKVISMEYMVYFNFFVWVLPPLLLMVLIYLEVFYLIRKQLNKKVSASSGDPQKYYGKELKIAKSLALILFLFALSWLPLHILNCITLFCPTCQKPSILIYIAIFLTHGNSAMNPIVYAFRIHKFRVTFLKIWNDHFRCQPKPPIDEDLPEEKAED
- PROCEDURE_DETAILS: Inhibitory concentration against R[3H]-N6-PIA binding to adenosine A1 receptor in rat whole brain membrane
- Format: cell membranes
READOUT_KIND: IC50 (µM)

Please review the entries below; each comes with its answer.
* CCn1c(=O)[nH]c2c(cnn2-c2ccccc2)c1=N | 20.1
* CCCCn1c(=O)[nH]c2c(cnn2-c2ccccc2)c1=N | 9.6
* CCCn1c(=O)[nH]c2c(cnn2-c2cccc(Cl)c2)c1=N | 14.6

A. CCn1c(=O)[nH]c2c(cnn2-c2cccc(Cl)c2)c1=N
B. CCCn1c(=O)[nH]c2c(cnn2-c2ccccc2)c1=N
Sort A and B by IC50 descending and give the first. State your choice using its label.
B

====

- SUBJECT_OF_TEST: Adenosine receptor A1 (Rattus norvegicus) (UniProt P25099)
- Sequence (whole entry): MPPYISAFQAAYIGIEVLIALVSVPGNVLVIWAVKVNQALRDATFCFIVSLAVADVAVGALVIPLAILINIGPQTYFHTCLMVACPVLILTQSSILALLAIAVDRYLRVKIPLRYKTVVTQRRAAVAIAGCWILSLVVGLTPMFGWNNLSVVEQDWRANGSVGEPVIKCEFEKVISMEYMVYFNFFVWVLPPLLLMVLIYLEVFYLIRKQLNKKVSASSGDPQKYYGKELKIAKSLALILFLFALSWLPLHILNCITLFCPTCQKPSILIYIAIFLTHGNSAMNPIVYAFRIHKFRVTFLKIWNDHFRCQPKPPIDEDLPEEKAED
- PROCEDURE_DETAILS: Inhibition of radioligand R[3H]-N6-PIA binding to adenosine A1 receptors in rat whole brain membrane at 20 uM concentration.
- Format: cell membranes
READOUT_KIND: inhibition (%)

Please review the entries below; each comes with its answer.
- Cn1c(=O)[nH]c2c(cnn2-c2cccc(Br)c2)c1=N: 40
- Cn1c(=O)[nH]c2c(cnn2-c2ccccc2N)c1=N: 0
- Cn1c(=O)[nH]c2c(cnn2-c2ccc(Br)cc2)c1=N: 34

P. Cn1c(=O)[nH]c2c(cnn2-c2ccc(Cl)cc2Cl)c1=N
Q. Cn1c(=O)[nH]c2c(cnn2-c2cccc(Cl)c2)c1=N
R. Cn1c(=O)[nH]c2c(cnn2C)c1=N
Write the entries in order, lowest recorded inhibition first. Form entry: labels listed in requested order.
R, P, Q
(R: 6%, P: 9%, Q: 53%)
